method notes: Stability of sample solutions in the dark/under light
Format: physicochemical
stated conditions: under light 30,000 lux, 1 h; salts in water, acidic reference in 30% to 50% ethanol
Assign Relative content to each entry below.

For the molecule C=CC1=C(C)c2cc3[n-]c(cc4[n-]c(cc5nc(cc1n2)C(C)=C5C=C)c(C)c4CCC(=O)O)c(CCC(=O)O)c3C.[Cl-].[Fe+3] [Chlorhematin, chlorhematin, reference compound] , give its reported Relative content.
27.73%

Give the measured Relative content for C=CC1=C(C)c2cc3[nH]c(cc4nc(cc5[nH]c(cc1n2)c(C)c5C=C)C(C)=C4CCC(=O)O)c(CCC(=O)O)c3C.N.N [Example 2, ammonium protoporphyrin]
60.29%

State its Relative content for this molecule: C=CC1=C(C)c2cc3[n-]c(cc4nc(cc5[n-]c(cc1n2)c(C)c5CCC(=O)[O-])C(CCC(=O)[O-])=C4C)c(C)c3C=C.[Cl-].[Cu+2].[Fe+3] [Example 19, copper chlorhematin]
95.23%

Output measured Relative content for this item: C=CC1=C(C)c2cc3[n-]c(cc4nc(cc5[n-]c(cc1n2)c(C)c5CCC(=O)[O-])C(CCC(=O)[O-])=C4C)c(C)c3C=C.[Cl-].[Fe+3].[Zn+2] [Example 18, zinc chlorhematin]
93.45%

Consider the molecule C=CC1=C(C)c2cc3[n-]c(cc4nc(cc5[n-]c(cc1n2)c(C)c5C=C)C(C)=C4CCC(=O)[O-])c(CCC(=O)[O-])c3C.[Fe+3].[Na+].[Na+].[OH-] [Sodium hydroxyhematin, sodium hydroxyhematin, reference compound] . State its measured Relative content.
70.21%

* * *

method notes: Stability of sample solutions in the dark/under light
Format: physicochemical
stated conditions: under light 30,000 lux, 1 h; salts in water, acidic reference in 30% to 50% ethanol
measure name: Relative content (%)
Response body: numeric value in %, unit text excluded.

Report measured Relative content; entry is "C=CC1=C(C)c2cc3[nH]c(cc4nc(cc5[nH]c(cc1n2)c(C)c5C=C)C(C)=C4CCC(=O)[O-])c(CCC(=O)[O-])c3C.[Ca+2]"
90.07

For the compound "C=CC1=C(C)c2cc3[n-]c(cc4nc(cc5[n-]c(cc1n2)c(C)c5C=C)C(C)=C4CCC(=O)[O-])c(CCC(=O)[O-])c3C.[Ca+2].[Cl-].[Fe+3]" , report Relative content.
82.53

Quickly give me recorded Relative content for "C=CC1=C(C)c2cc3[n-]c(cc4nc(cc5[n-]c(cc1n2)c(C)c5C=C)C(C)=C4CCC(=O)[O-])c(CCC(=O)[O-])c3C.[Cl-].[Fe+3].[Mg+2]"
82.11

Supply recorded Relative content for "C=CC1=C(C)c2cc3[n-]c(cc4nc(cc5[n-]c(cc1n2)c(C)c5C=C)C(C)=C4CCC(=O)[O-])c(CCC(=O)[O-])c3C.[Cl-].[Fe+3].[NH4+].[NH4+]" here.
73.07

Return Relative content (reported value) for this compound: "C=CC1=C(C)c2cc3[n-]c(cc4nc(cc5[n-]c(cc1n2)c(C)c5C=C)C(C)=C4CCC(=O)O)c(CCC(=O)O)c3C.[Zn+2]"
90.95

In one line, give reported Relative content of the entry "C=CC1=C(C)c2cc3[nH]c(cc4nc(cc5[nH]c(cc1n2)c(C)c5C=C)C(C)=C4CCC(=O)[O-])c(CCC(=O)[O-])c3C.[Cu+2]" .
96.42

// Input: "C=CC1=C(C)c2cc3[n-]c(cc4nc(cc5[n-]c(cc1n2)c(C)c5C=C)C(C)=C4CCC(=O)[O-])c(CCC(=O)[O-])c3C.[Cl-].[Fe+3].[K+].[K+]" . Output its Relative content only.
90.91

Return Relative content for the following compound: C=CC1=C(C)c2cc3[n-]c(cc4nc(cc5[n-]c(cc1n2)c(C)c5C=C)C(C)=C4CCC(=O)[O-])c(CCC(=O)[O-])c3C.[Cl-].[Fe+3].[Na+].[Na+] [Example 11, sodium chlorhematin]
74.11

Return value of Relative content for input "C=CC1=C(C)c2cc3[nH]c(cc4nc(cc5[nH]c(cc1n2)c(C)c5C=C)C(C)=C4CCC(=O)[O-])c(CCC(=O)[O-])c3C.[Mn+2]" , no commentary.
92.57

Dear colleague, please send me the reported Relative content for C=CC1=C(C)c2cc3[nH]c(cc4nc(cc5[nH]c(cc1n2)c(C)c5CCC(=O)O)C(CCC(=O)O)=C4C)c(C)c3C=C [Protoporphyrin disodium, protoporphyrin disodium, reference compound] when you can.
63.47

* * *

method notes: Stability of sample solutions in the dark/under light
Format: physicochemical
stated conditions: under light 30,000 lux, 3 h; salts in water, acidic reference in 30% to 50% ethanol
I'd appreciate it if you could supply Relative content values for the items below.
Response body: numeric value in %, unit text excluded.

Complete the entry with Relative content for C=CC1=C(C)c2cc3[n-]c(cc4nc(cc5[n-]c(cc1n2)c(C)c5C=C)C(C)=C4CCC(=O)[O-])c(CCC(=O)[O-])c3C.[Cl-].[Fe+3].[Mg+2] [Example 13, magnesium chlorhematin]
75.61

Retrieve Relative content measured for C=CC1=C(C)c2cc3[nH]c(cc4nc(cc5[nH]c(cc1n2)c(C)c5CCC(=O)O)C(CCC(=O)O)=C4C)c(C)c3C=C [Protoporphyrin disodium, protoporphyrin disodium, reference compound] and print it.
57.05

Provide Relative content value for the following compound: C=CC1=C(C)c2cc3[n-]c(cc4nc(cc5[n-]c(cc1n2)c(C)c5C=C)C(C)=C4CCC(=O)[O-])c(CCC(=O)[O-])c3C.[Cl-].[Fe+3].[Mn+2] [Example 15, manganese chlorhematin]
81.07

Fill in reported Relative content for this entry: C=CC1=C(C)c2cc3[n-]c(cc4nc(cc5[n-]c(cc1n2)c(C)c5C=C)C(C)=C4CCC(=O)[O-])c(CCC(=O)[O-])c3C.[Cl-].[Fe+3].[K+].[K+] [Example 10, potassium chlorhematin]
81.82

* * *

method notes: Stability of sample solutions in the dark/under light
Assay type: physicochemical
stated conditions: under light 30,000 lux, 2 h; salts in water, acidic reference in 30% to 50% ethanol
Method: Determination: An appropriate amount of a salt sample was taken, dissolved with water, and diluted to prepare a test solution with a concentration of about 10 ppm. […] Each test solution was scanned by an ultraviolet spectrophotometer (at 0 h) for absorbance in a range of 200 nm to 800 nm immediately after being prepared. […] At 1 h, 2 h, and 3 h, a solution sample was collected and scanned for absorbance respectively. […]
Please respond with reported Relative content for every item in the list.
Report only the number, with the unit % understood.

Provide Relative content value for the following molecule: C=CC1=C(C)c2cc3[n-]c(cc4nc(cc5[n-]c(cc1n2)c(C)c5C=C)C(C)=C4CCC(=O)[O-])c(CCC(=O)[O-])c3C.[Cl-].[Fe+3].[K+].[K+] [Example 10, potassium chlorhematin]
90.08

Consider the molecule C=CC1=C(C)c2cc3[n-]c(cc4nc(cc5[n-]c(cc1n2)c(C)c5C=C)C(C)=C4CCC(=O)[O-])c(CCC(=O)[O-])c3C.[Cl-].[Fe+3].[Na+].[Na+] [Example 11, sodium chlorhematin] . State its measured Relative content.
69.68

# return recorded Relative content for input C=CC1=C(C)c2cc3[n-]c(cc4nc(cc5[n-]c(cc1n2)c(C)c5C=C)C(C)=C4CCC(=O)[O-])c(CCC(=O)[O-])c3C.[Cl-].[Fe+3].[Mg+2] [Example 13, magnesium chlorhematin]
81.84

Cited source for all entries: patent US20260123631A1
